- Tested on: HeLa Kyoto
- ASSAY PROCEDURE: solubility change mitosis vs G1/S (difference of NP-40 vs SDS log2 ratios) (log2 ratio difference); higher = more soluble in mitosis
Reported solubility change mitosis (log2) is given for each of the following sequences.

[
  {
    "SEQUENCE STRING": "MSSPPEGKLETKAGHPPAVKAGGMRIVQKHPHTGDTKEEKDKDDQEWESPSPPKPTVFISGVIARGDKDFPPAAAQVAHQKPHASMDKHPSPRTQHIQQPRK [DAP]",
    "TEST SYSTEM": "HeLa Kyoto",
    "solubility change mitosis (log2)": 0.309
  },
  {
    "SEQUENCE STRING": "MANIAVQRIKREFKEVLKSEETSKNQIKVDLVDENFTELRGEIAGPPDTPYEGGRYQLEIKIPETYPFNPPKVRFITKIWHPNISSVTGAICLDILKDQWAAAMTLRTVLLSLQALLAAAEPDDPQDAVVANQYKQNPEMFKQTARLWAHVYAGAPVSSPEYTKKIENLCAMGFDRNAVIVALSSKSWDVETATELLLSN [UBE2K]",
    "TEST SYSTEM": "HeLa Kyoto",
    "solubility change mitosis (log2)": -0.0147
  },
  {
    "SEQUENCE STRING": "MGLLAFLKTQFVLHLLVGFVFVVSGLVINFVQLCTLALWPVSKQLYRRLNCRLAYSLWSQLVMLLEWWSCTECTLFTDQATVERFGKEHAVIILNHNFEIDFLCGWTMCERFGVLGSSKVLAKKELLYVPLIGWTWYFLEIVFCKRKWEEDRDTVVEGLRRLSDYPEYMWFLLYCEGTRFTETKHRVSMEVAAAKGLPVLKYHLLPRTKGFTTAVKCLRGTVAAVYDVTLNFRGNKNPSLLGILYGKKYEADMCVRRFPLEDIPLDEKEAAQWLHKLYQEKDALQEIYNQKGMFPGEQFKPARRPWTLLNFLSWATILLSPLFSFVLGVFASGSPLLILTFLGFVGAASFGVRRLIGVTEIEKGSSYGNQEFKKKE [AGPAT3]",
    "TEST SYSTEM": "HeLa Kyoto",
    "solubility change mitosis (log2)": -0.0117
  }
]

* * *

- System: HeLa Kyoto
- ASSAY PROCEDURE: thermal stability score vs G1/S (z-score of summed log2 fold changes over temperatures); higher = more thermally stable than in G1/S
- SETTINGS: cell cycle stage: early G1 (4.5 h after nocodazole release)
Reported thermal stability score is given for each of the following sequences.

[
  {
    "SEQUENCE STRING": "MAQFVRNLVEKTPALVNAAVTYSKPRLATFWYYAKVELVPPTPAEIPRAIQSLKKIVNSAQTGSFKQLTVKEAVLNGLVATEVLMWFYVGEIIGKRGIIGYDV [ATP5L]",
    "thermal stability score": -1.18
  },
  {
    "SEQUENCE STRING": "MASYPYRQGCPGAAGQAPGAPPGSYYPGPPNSGGQYGSGLPPGGGYGGPAPGGPYGPPAGGGPYGHPNPGMFPSGTPGGPYGGAAPGGPYGQPPPSSYGAQQPGLYGQGGAPPNVDPEAYSWFQSVDSDHSGYISMKELKQALVNCNWSSFNDETCLMMINMFDKTKSGRIDVYGFSALWKFIQQWKNLFQQYDRDRSGSISYTELQQALSQMGYNLSPQFTQLLVSRYCPRSANPAMQLDRFIQVCTQLQVLTEAFREKDTAVQGNIRLSFEDFVTMTASRML [PEF1]",
    "thermal stability score": -1.46
  },
  {
    "SEQUENCE STRING": "MAGVSACIKYSMFTFNFLFWLCGILILALAIWVRVSNDSQAIFGSEDVGSSSYVAVDILIAVGAIIMILGFLGCCGAIKESRCMLLLFFIGLLLILLLQVATGILGAVFKSKSDRIVNETLYENTKLLSATGESEKQFQEAIIVFQEEFKCCGLVNGAADWGNNFQHYPELCACLDKQRPCQSYNGKQVYKETCISFIKDFLAKNLIIVIGISFGLAVIEILGLVFSMVLYCQIGNK [TSPAN8]",
    "thermal stability score": 1.86
  }
]

* * *

- System: HeLa Kyoto
- ASSAY PROCEDURE: melting temperature (median over replicates), in situ; higher = more thermally stable
- SETTINGS: cell cycle stage: G1/S

[
  {
    "SEQUENCE STRING": "MTMDKSELVQKAKLAEQAERYDDMAAAMKAVTEQGHELSNEERNLLSVAYKNVVGARRSSWRVISSIEQKTERNEKKQQMGKEYREKIEAELQDICNDVLELLDKYLIPNATQPESKVFYLKMKGDYFRYLSEVASGDNKQTTVSNSQQAYQEAFEISKKEMQPTHPIRLGLALNFSVFYYEILNSPEKACSLAKTAFDEAIAELDTLNEESYKDSTLIMQLLRDNLTLWTSENQGDEGDAGEGEN [YWHAB]",
    "TEST SYSTEM": "HeLa Kyoto",
    "melting temperature [°C]": 52.6
  },
  {
    "SEQUENCE STRING": "MVSWMISRAVVLVFGMLYPAYYSYKAVKTKNVKEYVRWMMYWIVFALYTVIETVADQTVAWFPLYYELKIAFVIWLLSPYTKGASLIYRKFLHPLLSSKEREIDDYIVQAKERGYETMVNFGRQGLNLAATAAVTAAVKSQGAITERLRSFSMHDLTTIQGDEPVGQRPYQPLPEAKKKSKPAPSESAGYGIPLKDGDEKTDEEAEGPYSDNEMLTHKGLRRSQSMKSVKTTKGRKEVRYGSLKYKVKKRPQVYF [REEP3]",
    "TEST SYSTEM": "HeLa Kyoto",
    "melting temperature [°C]": 52.8
  },
  {
    "SEQUENCE STRING": "MSKSESPKEPEQLRKLFIGGLSFETTDESLRSHFEQWGTLTDCVVMRDPNTKRSRGFGFVTYATVEEVDAAMNARPHKVDGRVVEPKRAVSREDSQRPGAHLTVKKIFVGGIKEDTEEHHLRDYFEQYGKIEVIEIMTDRGSGKKRGFAFVTFDDHDSVDKIVIQKYHTVNGHNCEVRKALSKQEMASASSSQRGRSGSGNFGGGRGGGFGGNDNFGRGGNFSGRGGFGGSRGGGGYGGSGDGYNGFGNDGGYGGGGPGYSGGSRGYGSGGQGYGNQGSGYGGSGSYDSYNNGGGGGFGGGSGSNFGGGGSYNDFGNYNNQSSNFGPMKGGNFGGRSSGPYGGGGQYFAKPRNQGGYGGSSSSSSYGSGRRF [HNRNPA1]",
    "TEST SYSTEM": "HeLa Kyoto",
    "melting temperature [°C]": 49.4
  },
  {
    "SEQUENCE STRING": "MGRRSSDTEEESRSKRKKKHRRRSSSSSSSDSRTYSRKKGGRKSRSKSRSWSRDLQPRSHSYDRRRRHRSSSSSSYGSRRKRSRSRSRGRGKSYRVQRSRSKSRTRRSRSRPRLRSHSRSSERSSHRRTRSRSRDRERRKGRDKEKREKEKDKGKDKELHNIKRGESGNIKAGLEHLPPAEQAKARLQLVLEAAAKADEALKAKERNEEEAKRRKEEDQATLVEQVKRVKEIEAIESDSFVQQTFRSSKEVKKSVEPSEVKQATSTSGPASAVADPPSTEKEIDPTSIPTAIKYQDDNSLAHPNLFIEKADAEEKWFKRLIALRQERLMGSPVA [RSRC1]",
    "TEST SYSTEM": "HeLa Kyoto",
    "melting temperature [°C]": 51.5
  },
  {
    "SEQUENCE STRING": "MDTPLRRSRRLGGLRPESPESLTSVSRTRRALVEFESNPEETREPGSPPSVQRAGLGSPERPPKTSPGSPRLQQGAGLESPQGQPEPGAASPQRQQDLHLESPQRQPEYSPESPRCQPKPSEEAPKCSQDQGVLASELAQNKEELTPGAPQHQLPPVPGSPEPYPGQQAPGPEPSQPLLELTPRAPGSPRGQHEPSKPPPAGETVTGGFGAKKRKGSSSQAPASKKLNKEELPVIPKGKPKSGRVWKDRSKKRFSQMLQDKPLRTSWQRKMKERQERKLAKDFARHLEEEKERRRQEKKQRRAENLKRRLENERKAEVVQVIRNPAKLKRAKKKQLRSIEKRDTLALLQKQPPQQPAAKI [CCDC86]",
    "TEST SYSTEM": "HeLa Kyoto",
    "melting temperature [°C]": 57.2
  },
  {
    "SEQUENCE STRING": "MSAFDTNPFADPVDVNPFQDPSVTQLTNAPQGGLAEFNPFSETNAATTVPVTQLPGSSQPAVLQPSVEPTQPTPQAVVSAAQAGLLRQQEELDRKAAELERKERELQNTVANLHVRQNNWPPLPSWCPVKPCFYQDFSTEIPADYQRICKMLYYLWMLHSVTLFLNLLACLAWFSGNSSKGVDFGLSILWFLIFTPCAFLCWYRPIYKAFRSDNSFSFFVFFFVFFCQIGIYIIQLVGIPGLGDSGWIAALSTLDNHSLAISVIMMVVAGFFTLCAVLSVFLLQRVHSLYRRTGASFQQAQEEFSQGIFSSRTFHRAASSAAQGAFQGN [SCAMP2]",
    "TEST SYSTEM": "HeLa Kyoto",
    "melting temperature [°C]": 58.4
  },
  {
    "SEQUENCE STRING": "MVGYDPKPDGRNNTKFQVAVAGSVSGLVTRALISPFDVIKIRFQLQHERLSRSDPSAKYHGILQASRQILQEEGPTAFWKGHVPAQILSIGYGAVQFLSFEMLTELVHRGSVYDAREFSVHFVCGGLAACMATLTVHPVDVLRTRFAAQGEPKVYNTLRHAVGTMYRSEGPQVFYKGLAPTLIAIFPYAGLQFSCYSSLKHLYKWAIPAEGKKNENLQNLLCGSGAGVISKTLTYPLDLFKKRLQVGGFEHARAAFGQVRRYKGLMDCAKQVLQKEGALGFFKGLSPSLLKAALSTGFMFFSYEFFCNVFHCMNRTASQR [SLC25A19]",
    "TEST SYSTEM": "HeLa Kyoto",
    "melting temperature [°C]": 56.4
  },
  {
    "SEQUENCE STRING": "MAAAGAPDGMEEPGMDTEAETVATEAPARPVNCLEAEAAAGAAAEDSGAARGSLQPAPAQPPGDPAAQASVSNGEDAGGGAGRELVDLKIIWNKTKHDVKFPLDSTGSELKQKIHSITGLPPAMQKVMYKGLVPEDKTLREIKVTSGAKIMVVGSTINDVLAVNTPKDAAQQDAKAEENKKEPLCRQKQHRKVLDKGKPEDVMPSVKGAQERLPTVPLSGMYNKSGGKVRLTFKLEQDQLWIGTKERTEKLPMGSIKNVVSEPIEGHEDYHMMAFQLGPTEASYYWVYWVPTQYVDAIKDTVLGKWQYF [UBFD1]",
    "TEST SYSTEM": "HeLa Kyoto",
    "melting temperature [°C]": 51.5
  },
  {
    "SEQUENCE STRING": "MEAVATATAAKEPDKGCIEPGPGHWGELSRTPVPSKPQDKVEAAEATPVALDSDTSGAENAAVSAMLHAVAASRLPVCSQQQGEPDLTEHEKVAILAQLYHEKPLVFLERFRTGLREEHLACFGHVRGDHRADFYCAEVARQGTARPRTLRTRLRNRRYAALRELIQGGEYFSDEQMRFRAPLLYEQYIGQYLTQEELSARTPTHQPPKPGSPGRPACPLSNLLLQSYEERELQQRLLQQQEEEEACLEEEEEEEDSDEEDQRSGKDSEAWVPDSEERLILREEFTSRMHQRFLDGKDGDFDYSTVDDNPDFDNLDIVARDEEERYFDEEEPEDAPSPELDGD [CCDC97]",
    "TEST SYSTEM": "HeLa Kyoto",
    "melting temperature [°C]": 49.6
  }
]
